This collection of values is drawn from the supplement of paper PMC7380943.

- Tested on: CLZ3 (HCA2 human fibroblast dual HR-NHEJ reporter);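 also: compound given one day ahead of doxycycline, which switches on I-SceI endonuclease to cut the chromosomally integrated reporter and create DSBs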
- assay_details: NHEJ repair efficiency (GFP+ cells) relative to control (log10 fold); higher = more non-homologous end joining
- study_conditions: 5 µM; doxycycline 0.5 ug/mL
Provide the recorded NHEJ repair efficiency (log10) for the entries that follow.
Enter a number only.

(Q) Need NHEJ repair efficiency (log10), item O=C(O)/C=C/c1ccc(O)c(O)c1 [Caffeic acid]
(A) 0.0395

(Q) Note, next up: OCC1=C[C@@H](O)[C@]2(O[C@@H]3O[C@H](CO)[C@@H](O)[C@H](O)[C@H]3O[C@@H]3O[C@H](CO)[C@@H](O)[C@H](O)[C@H]3O)C=CO[C@@H](O[C@@H]3O[C@H](CO)[C@@H](O)[C@H](O)[C@H]3O)[C@H]12 [Rehmannioside D]
(A) -0.165

(Q) Note, next up: `C=C(C)[C@@H]1CC[C@]2(C)[C@H](CC=C3[C@@H]4[C@@H](C)[C@H](C)CC[C@]4(C)CC[C@]32C)[C@@]1(C)CCC(=O)O`
(A) 0.15

(Q) Note, next up: CC(C)=CCC[C@](C)(O[C@@H]1O[C@H](CO[C@@H]2O[C@H](CO)[C@@H](O)[C@H](O)[C@H]2O)[C@@H](O)[C@H](O)[C@H]1O)[C@H]1CC[C@]2(C)[C@@H]1[C@H](O)C[C@@H]1[C@@]3(C)CC[C@H](O[C@@H]4O[C@H](CO)[C@@H](O)[C@H](O)[C@H]4O)C(C)(C)[C@@H]3CC[C@]12C [Gypenoside Xvii]
(A) 0.0522
